molecular target: human OT7T175 (metastin receptor) (human, UniProt Q969F8 1-398); experiment: cell-based or functional assay
Sequence (Q969F8 whole entry L364H): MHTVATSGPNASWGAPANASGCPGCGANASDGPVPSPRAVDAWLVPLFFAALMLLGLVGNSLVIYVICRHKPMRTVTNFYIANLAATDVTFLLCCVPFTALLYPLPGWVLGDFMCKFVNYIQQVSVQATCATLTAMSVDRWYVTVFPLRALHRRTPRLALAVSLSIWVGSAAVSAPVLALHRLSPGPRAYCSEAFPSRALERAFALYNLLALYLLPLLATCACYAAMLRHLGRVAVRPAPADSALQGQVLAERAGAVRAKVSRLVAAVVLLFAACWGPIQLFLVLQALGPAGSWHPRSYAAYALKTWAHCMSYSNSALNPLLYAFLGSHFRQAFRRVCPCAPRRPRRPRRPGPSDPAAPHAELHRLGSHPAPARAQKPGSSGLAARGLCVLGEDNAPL
Non-standard residues stand in square brackets, D forms with d. No end group written: not given here. *: point of attachment. GuAmb = 4-guanidinomethylbenzoyl, N=C(N)NCc1ccc(C(=O)*)cc1; 2‑(indol-3-yl)ethylcarbamoyl = O=C(NCCc1c[nH]c2ccccc12)*; Arg(Me) = CNC(=N)NCCC[C@H](N)C(=O)O; 4Pal = N[C@@H](Cc1ccncc1)C(=O)O; d3Pal = N[C@H](Cc1cccnc1)C(=O)O; d4Pal = N[C@H](Cc1ccncc1)C(=O)O; Cha = N[C@@H](CC1CCCCC1)C(=O)O; azaGly = NNC(=O)O
attribute measured: Ca ion level-increasing activity (FLIPR)

Please review the following examples before continuing.
{"columns": ["binder", "Ca ion level-increasing activity (FLIPR)"],
 "data": [
  ["Y[dN][4Pal]NSF[azaGly]L[Arg(Me)]F-NH2 (also called Compound No. 304) [[D-Asn2,Pya(4)3,AzaGly7,Arg(Me)9]MS10]", "3 x Metastin (1-54)"],
  ["[dY]N[4Pal]NSF[azaGly]L[Arg(Me)]F-NH2 (also called Compound No. 286) [[D-Tyr1,Pya(4)3,AzaGly7,Arg(Me)9]MS10]", "2 x Metastin (1-54)"],
  ["[dY]NWNSFGL[Arg(Me)]F-NH2 (also: bond 6-7 CONH replaced by CSNH (thioamide), also called Compound No. 296) [[6Ψ7,CSNH,D-Tyr1,Arg(Me)9]MS10]", "3 x Metastin (1-54)"],
  ["[d3Pal]FNSF[azaGly]L[Arg(Me)]F-NH2 (N-terminus assumed; SMILES CNC(=N)NCCC[C@H](NC(=O)[C@H](CC(C)C)NC(=O)NNC(=O)[C@H](Cc1ccccc1)NC(=O)[C@H](CO)NC(=O)[C@H](CC(N)=O)NC(=O)[C@H](Cc1ccccc1)NC(=O)[C@H](N)Cc1cccnc1)C(=O)N[C@@H](Cc1ccccc1)C(N)=O, also called Compound No. 256) [des(1)-[D-Pya(3)2,Phe3,AzaGly7,Arg(Me)9]MS10]", "1 x Metastin (1-54)"]
]}

State the recorded Ca ion level-increasing activity (FLIPR) for every item in the following list.
1. [d4Pal][dN][Cha]NSF[azaGly]L[Arg(Me)]F-NH2 (N-terminus assumed; SMILES CNC(=N)NCCC[C@H](NC(=O)[C@H](CC(C)C)NC(=O)NNC(=O)[C@H](Cc1ccccc1)NC(=O)[C@H](CO)NC(=O)[C@H](CC(N)=O)NC(=O)[C@H](CC1CCCCC1)NC(=O)[C@@H](CC(N)=O)NC(=O)[C@H](N)Cc1ccncc1)C(=O)N[C@@H](Cc1ccccc1)C(N)=O, also called Compound No. 306) [[D-Pya(4)1,D-Asn2,Cha3,AzaGly7,Arg(Me)9]MS10]
2. {2‑(indol-3-yl)ethylcarbamoyl}-NSF[azaGly]L[Arg(Me)]F-NH2 (SMILES CNC(=N)NCCC[C@H](NC(=O)[C@H](CC(C)C)NC(=O)NNC(=O)[C@H](Cc1ccccc1)NC(=O)[C@H](CO)NC(=O)[C@H](CC(N)=O)NC(=O)NCCc1c[nH]c2ccccc12)C(=O)N[C@@H](Cc1ccccc1)C(N)=O, also called Compound No. 279) [des(1-3)-2-(Indol-3-yl)ethylcarbamoyl-[AzaGly7,Arg(Me)9]MS10]
3. [d3Pal]WNSF[azaGly]L[Arg(Me)]F-NH2 (also called Compound No. 289; [D-Pya(3)2,AzaGly7,Arg(Me)9]MS10-(2-10)) [des(1)-[D-Pya(3)2,AzaGly7,Arg(Me)9]MS10]
4. [dY][dN][4Pal]NSF[azaGly]L[Arg(Me)]F-NH2 (also called Compound No. 303) [[D-Tyr1,D-Asn2,Pya(4)3,AzaGly7,Arg(Me)9]MS10]

1: 2 x Metastin (1-54); 2: 5 x Metastin (1-54); 3: 1 x Metastin (1-54); 4: 5 x Metastin (1-54)

// input: 4 binders below; output: Ca ion level-increasing activity (FLIPR) for each
1. GuAmb-F[azaGly]L[Arg(Me)]F-NH2 (SMILES CNC(=N)NCCC[C@H](NC(=O)[C@H](CC(C)C)NC(=O)NNC(=O)[C@H](Cc1ccccc1)NC(=O)c1ccc(CNC(=N)N)cc1)C(=O)N[C@@H](Cc1ccccc1)C(N)=O) [des(1-5)-GuAmb-[AzaGly7,Arg(Me)9]MS10]
2. YNWNSFGLXF (Nar(Me)9; C-terminal amide, also called Compound No. 311) [[Nar(Me)9]MS10]
3. [dY][dN]TNSF[azaGly]L[Arg(Me)]F-NH2 (also called Compound No. 284) [[D-Tyr1,D-Asn2,Thr3,AzaGly7,Arg(Me)9]MS10]
4. [dY][dN]FNSF[azaGly]L[Arg(Me)]F-NH2 (also called Compound No. 257) [[D-Tyr1,D-Asn2,Phe3,AzaGly7,Arg(Me)9]MS10]

2 x Metastin (1-54)
1 x Metastin (1-54)
1 x Metastin (1-54)
3 x Metastin (1-54)
